// data source = patent US8999956B2

assay: log P by HPLC on reversed-phase column (EEC Directive 79/831 Annex V.A8); assay type: physicochemical
outcomeMeasure: logP

Solved cases (4 shown):
1) CN(CCN(C)C(=O)c1c(C(F)F)nn(C)c1Cl)C(=O)c1ccccc1 [Example 231]
1.76
2) Cc1ccc(C(C)CCN(C)C(=O)c2c(C(F)F)nn(C)c2Cl)o1 (centres unmarked) [Example 110]
3.02
3) CC(C)CC(C)C1CCCCC1NC(=S)c1c(C(F)F)nn(C)c1Cl (centres unmarked) [Example 336]
5.42
4) Cn1nc(C(F)F)c(C(=O)NCC2CCCC(C(F)(F)F)C2)c1F (centres unmarked) [Example 379]
2.96

Could you please provide reported logP for Cc1cccc(C)c1OCC(C)N(C(=O)c1c(C(F)F)nn(C)c1Cl)C1CC1 (centres unmarked) [Example 156] ? Thanks! 4.15

----------
Below: a set of entries, each annotated with reported logP.
assay: log P by HPLC on reversed-phase column (EEC Directive 79/831 Annex V.A8); assay type: physicochemical
Could you keep your reply to the number by itself?

Solved entries (count: 5):
1. Cn1nc(C(F)F)c(C(=O)N(CC#Cc2ccccc2)C(C)(C)C)c1F
3.83
2. Cn1nc(C(F)F)c(C(=O)N(C[Si](C)(C)Cc2cc(Cl)cc(Cl)c2)C2CC2)c1Cl
5.14
3. CC(CCc1ccccc1Cl)NC(=O)c1c(C(F)F)nn(C)c1F (racemic)
3.21
4. Cc1cccc(C)c1CC(C)CNC(=O)c1c(C(F)F)nn(C)c1Cl (racemic)
3.63
5. Cn1nc(C(F)F)c(C(=O)NCCS(=O)(=O)c2ccc(Cl)cc2)c1Cl
2.30

Supply measured logP of CN(CC#Cc1cc2ccccc2s1)C(=O)c1c(C(F)F)nn(C)c1F in your reply. 3.39

Quick one: give measured logP for Cn1nc(C(F)F)c(C(=O)NC(CSc2ccccc2)C2CC2)c1Cl (centres unmarked) 3.44

Tell me its logP given Cc1ccc(C(C)CCN(C(=O)c2c(C(F)F)nn(C)c2Cl)C2CC2)o1 (centres unmarked) as the entry. 3.56

----------
test: log P by HPLC on reversed-phase column (EEC Directive 79/831 Annex V.A8); format: physicochemical
List of logP values.
Lab note: record just the number, no unit beside it.

Please indicate logP recorded for Cc1ccsc1CCCN(C(=O)c1c(C(F)F)nn(C)c1F)C1CC1 [Example 105] 3.33

Determine its reported logP: Cn1nc(C(F)F)c(C(=O)NC2(C(=O)Nc3ccccc3)CCCC2)c1F [Example 3] 2.46

Find the measured logP of CC(CCc1ncc(C(F)(F)F)cc1Cl)N(C)C(=O)c1c(C(F)F)nn(C)c1F (stereo not drawn) [Example 87] and report it. 3.29

----------
experiment: log P by HPLC on reversed-phase column (EEC Directive 79/831 Annex V.A8); assay type: physicochemical
Returns: string. Value is Criterion met if measured logP is below 4, and Criterion not met if it is greater than or equal to it.

1. CN(CCN(C)C(=O)c1c(C(F)F)nn(C)c1F)C(=O)c1ccccc1 [Example 230]
Criterion met
2. CC(CCc1c(Cl)cc(Cl)cc1Cl)NC(=O)c1c(C(F)F)nn(C)c1F (stereo not drawn) [Example 215]
Criterion not met
3. Cn1nc(C(F)F)c(C(=O)NC2(C(F)(F)F)CCCCC2)c1Cl [Example 386]
Criterion met
4. Cn1nc(C(F)F)c(C(=O)N(C[Si](C)(C)Cc2ccc(Cl)cc2Cl)C2CC2)c1Cl [Example 297]
Criterion not met
5. Cn1nc(C(F)F)c(C(=O)NCCOc2c(F)cccc2F)c1Cl [Example 160]
Criterion met
6. Cc1ccc(SCC(C2CC2)N(C)C(=O)c2c(C(F)F)nn(C)c2Cl)cc1 (stereo not drawn) [Example 41]
Criterion met

Lab log: compare recorded logP with 4; is it strictly lower for CCC(CCc1sccc1C)NC(=O)c1c(C(F)F)nn(C)c1Cl (stereo not drawn) [Example 78] ? Criterion met

API: query returns whether the molecule falls strictly under 4 in logP. Query: Cn1nc(C(F)F)c(C(=O)N(CC#Cc2ccccc2)C2CCCC2)c1F [Example 273] Criterion met

Determine if CCC(CCc1sccc1Br)NC(=O)c1c(C(F)F)nn(C)c1Cl (stereo not drawn) [Example 90] shows logP strictly lower than 4. Criterion met

Bench note: check whether CCC1(C)CC(NC(=O)c2c(C(F)F)nn(C)c2F)CC(C)(C)C1 (stereo not drawn) [Example 363] shows logP below 4 Criterion not met
